melting point overview
parameter: melting point

# compound, val
data = [
    ("CCCCNC(=O)C(C)(O[Si](C)(C)C(C)(C)C)c1ccc([N+](=O)[O-])cc1 (stereo not given)", "49 to 50 °C"),
    ("Cc1ccc(S(=O)(=O)OC(c2cccc(C(OS(=O)(=O)c3ccc(C)cc3)(C(F)(F)F)C(F)(F)F)c2)(C(F)(F)F)C(F)(F)F)cc1", "131 °C"),
    ("CCCCCCCCS(=O)(=O)C(Cl)S(N)(=O)=O (stereo not given)", "73 to 74 °C"),
    ("COc1c(Br)cc(C2CC=CCC2[N+](=O)[O-])c(OC)c1OC (stereo not given)", "134 to 136 °C"),
    ("CCc1cn(C2CC(O)C(CCCNC(=O)Cc3c(Cl)cccc3Cl)O2)c(=O)[nH]c1=O (stereo not given)", "227 to 229 °C"),
    ("CSc1ccc2[nH]c(=O)n(CCN3CCC(Nc4nc5ccccc5n4Cc4ccc(F)cc4)CC3)c(=O)c2c1", "238 °C"),
    ("COc1cn2nc(OCCCN3CCC(OC(c4ccccc4)c4ccccc4)CC3)ccc2n1", "133 to 135 °C"),
    ("O=C(O)Cc1ccc(OCCNC(=O)C2Cc3ccccc3N2S(=O)(=O)c2ccc(-c3ccc(F)cc3)c(C(F)(F)F)c2)cc1 (stereo not given)", "92 °C"),
    ("O=C(Nc1ncnc2c1c(Cl)cn2C1CC(O)C(CO)O1)c1ccccc1 (stereo not given)", "190 °C"),
    ("CCOc1cc(C)ccc1C1CCN(CCCCNC(=O)c2ccc3oc(-c4ccc(Cl)cc4)cc3c2)CC1", "145 to 158 °C"),
    ("O=C(O)c1cccnc1NCCSCc1nccs1", "133 to 134 °C"),
    ("COc1ccc(C2=NN(C3CCN(S(=O)(=O)c4cccc5c(N(C)C)cccc45)CC3)C(=O)[C@@H]3CC=CC[C@H]23)cc1OC", "198 to 200 °C"),
    ("CCOC(=O)c1ccc(NC2CCCc3ccccc32)cc1 (stereo not given)", "34 °C"),
    ("NN1CCN(CC(O)c2c[nH]c3ccccc23)CC1 (stereo not given)", "174 to 177 °C"),
    ("CN(C)c1nc(NCc2ccc(NC(=O)c3ccc(F)cc3)cc2)c2ccc(-c3ccccc3C=O)cc2n1", "128 °C"),
    ("CC(=O)OC1CSC(Oc2cncc(-c3ccc(F)cc3C)c2)C(OC(C)=O)C1OC(C)=O (stereo not given)", "120 °C"),
    ("CCNc1ncccc1C(=O)Nc1c(C)ccnc1Cl", "122 to 124 °C"),
    ("Cc1ccc(C(O)(c2ccc(C)cc2)C2CCN(CCCC(O)c3ccc(C(C)(C)C(=O)O)cc3)CC2)cc1 (stereo not given)", "208 to 215 °C"),
    ("O=C(c1ccc(-c2ncn[nH]2)cc1Cl)N1Cc2cccn2Cc2ccccc21", "174 to 177 °C"),
    ("COc1ccccc1C1CC(=O)c2c(C)coc2C1 (stereo not given)", "79 to 80 °C"),
    ("CCSc1nc(C)[nH]c1CO", "153 °C"),
    ("O=C(c1ccccc1)c1[nH]c2cc(Cl)ccc2c1CC(=O)N1CCOCC1", "188 to 190 °C"),
    ("CC(C)c1ccc2nc3ccc(C(=O)NCCCCc4cccnc4)cc3c(=O)n2c1", "247 to 249 °C"),
    ("CCOC(=O)C(=NOC)C(C)=NNC(=O)OC(C)(C)C", "144 to 145 °C"),
    ("CC(=O)N1c2ccc(-c3ccc(CN(C)C)cc3)cc2C(Nc2ccccc2)CC1C (stereo not given)", "90 °C"),
    ("S=c1cc(-c2ccc(Cl)cc2)ss1", "135 °C"),
    ("Oc1ccc2ccc(-c3ccccc3)cc2c1", "205 °C"),
    ("CN(C)c1nc2sc3c(NCc4ccccn4)ncnc3c2c2c1COC(C)(C)C2", "217 to 218 °C"),
    ("COC(=O)c1sc2c(c1O)CCC2", "73 to 75 °C"),
    ("COC(=O)c1cc(Br)c(Br)o1", "56 to 57 °C"),
    ("O=C(O)c1ccc(-c2nc(-c3ccccc3)co2)cc1", "275 to 276 °C"),
    ("CCCc1c(-c2cccnn2)ssc1=S", "77 °C"),
    ("CC1CC2CC(Cc3ccc(O)cc3)CCC2NC1=O (stereo not given)", "217 to 223 °C"),
    ("Cc1cc2c(NCc3ccc4c(c3)OCO4)nc(-c3ccc(C(=O)O)cc3)nc2s1", "> 250 °C"),
    ("COc1ccccc1N1CCN(CCn2c(=O)[nH]c3ccsc3c2=O)CC1", "222 to 223 °C"),
    ("Cc1cccc(-c2nc3ccc(Cl)nn3c2-c2ccnc(NC3CCCCC3)c2)c1", "191 to 192 °C"),
    ("CCNC(=S)NC1CC(C)(C)NC(C)(C)C1", "134 °C"),
    ("COc1ccccc1CN[C@H]1CCCN[C@H]1c1cc(Br)cc(Br)c1 (relative stereo)", "> 240 °C"),
    ("CCOC(=O)c1oc2cc(O)ccc2c(=O)c1C(N)=O", "> 320 °C"),
    ("C=CCOC(=O)NC(=O)C(C)(c1ccccc1)c1ccccc1", "89 °C"),
]

Source of measurements: a melting point compilation (Tetko et al.; mined from patent text by program, amines drawn as free bases though some values may be those of a salt)
